Molecular target: Full length WRN protein (aa 2-1432) (Homo sapiens (Human))
Test: WRN ATPase ADP-Glo biochemical assay, Assay Format A (10 μM ATP)
Conditions: 0.25 nM WRN, 100 nM C6.18 ssDNA, 30 min preincubation, read-out: ATPase ADPGlo AC50 (uM)- Assay Format A
Outcome measure: AC50

>  <Compound>
C=CC(=O)N1CCc2nn(-c3ccc(C4CCC4)cc3)c3c2C(C1)N(C(=O)c1cnc(C(F)(F)F)c(O)c1)CC3 (stereo not shown)

>  <Assayed system>
Full length WRN protein (aa 2-1432) (Homo sapiens (Human))

>  <Outcome measure>
AC50

>  <Observed result>
< 0.0015 µM

$$$$
>  <Compound>
C=CC(=O)N1CCc2nn(-c3ccc(C4CC4)cc3)c3c2C(C1)N(C(=O)c1ccc(C(F)(F)F)nc1N)CC3 (stereo not shown)

>  <Assayed system>
Full length WRN protein (aa 2-1432) (Homo sapiens (Human))

>  <Outcome measure>
AC50

>  <Observed result>
0.0015 to 0.005 µM

$$$$
>  <Compound>
C=CC(=O)N1CCc2nn(-c3ccc(C4CC4)cc3O)c3c2C(C1)N(C(=O)c1ccc(Br)nc1N)CC3 (stereo not shown)

>  <Assayed system>
Full length WRN protein (aa 2-1432) (Homo sapiens (Human))

>  <Outcome measure>
AC50

>  <Observed result>
< 0.0015 µM

$$$$
>  <Compound>
C=CC(=O)N1CC(C)c2nn(-c3ccc(C(C)C)cc3)c3c2C(C1)N(C(=O)c1ccc(Br)c2[nH]cnc12)CC3 (stereo not shown) [Compound 33]

>  <Assayed system>
Full length WRN protein (aa 2-1432) (Homo sapiens (Human))

>  <Outcome measure>
AC50

>  <Observed result>
0.0015 to 0.005 µM

$$$$

====

Target: Full length WRN protein (aa 2-1432) (Homo sapiens (Human), UniProt Q14191)
Sequence (Q14191 2-1432): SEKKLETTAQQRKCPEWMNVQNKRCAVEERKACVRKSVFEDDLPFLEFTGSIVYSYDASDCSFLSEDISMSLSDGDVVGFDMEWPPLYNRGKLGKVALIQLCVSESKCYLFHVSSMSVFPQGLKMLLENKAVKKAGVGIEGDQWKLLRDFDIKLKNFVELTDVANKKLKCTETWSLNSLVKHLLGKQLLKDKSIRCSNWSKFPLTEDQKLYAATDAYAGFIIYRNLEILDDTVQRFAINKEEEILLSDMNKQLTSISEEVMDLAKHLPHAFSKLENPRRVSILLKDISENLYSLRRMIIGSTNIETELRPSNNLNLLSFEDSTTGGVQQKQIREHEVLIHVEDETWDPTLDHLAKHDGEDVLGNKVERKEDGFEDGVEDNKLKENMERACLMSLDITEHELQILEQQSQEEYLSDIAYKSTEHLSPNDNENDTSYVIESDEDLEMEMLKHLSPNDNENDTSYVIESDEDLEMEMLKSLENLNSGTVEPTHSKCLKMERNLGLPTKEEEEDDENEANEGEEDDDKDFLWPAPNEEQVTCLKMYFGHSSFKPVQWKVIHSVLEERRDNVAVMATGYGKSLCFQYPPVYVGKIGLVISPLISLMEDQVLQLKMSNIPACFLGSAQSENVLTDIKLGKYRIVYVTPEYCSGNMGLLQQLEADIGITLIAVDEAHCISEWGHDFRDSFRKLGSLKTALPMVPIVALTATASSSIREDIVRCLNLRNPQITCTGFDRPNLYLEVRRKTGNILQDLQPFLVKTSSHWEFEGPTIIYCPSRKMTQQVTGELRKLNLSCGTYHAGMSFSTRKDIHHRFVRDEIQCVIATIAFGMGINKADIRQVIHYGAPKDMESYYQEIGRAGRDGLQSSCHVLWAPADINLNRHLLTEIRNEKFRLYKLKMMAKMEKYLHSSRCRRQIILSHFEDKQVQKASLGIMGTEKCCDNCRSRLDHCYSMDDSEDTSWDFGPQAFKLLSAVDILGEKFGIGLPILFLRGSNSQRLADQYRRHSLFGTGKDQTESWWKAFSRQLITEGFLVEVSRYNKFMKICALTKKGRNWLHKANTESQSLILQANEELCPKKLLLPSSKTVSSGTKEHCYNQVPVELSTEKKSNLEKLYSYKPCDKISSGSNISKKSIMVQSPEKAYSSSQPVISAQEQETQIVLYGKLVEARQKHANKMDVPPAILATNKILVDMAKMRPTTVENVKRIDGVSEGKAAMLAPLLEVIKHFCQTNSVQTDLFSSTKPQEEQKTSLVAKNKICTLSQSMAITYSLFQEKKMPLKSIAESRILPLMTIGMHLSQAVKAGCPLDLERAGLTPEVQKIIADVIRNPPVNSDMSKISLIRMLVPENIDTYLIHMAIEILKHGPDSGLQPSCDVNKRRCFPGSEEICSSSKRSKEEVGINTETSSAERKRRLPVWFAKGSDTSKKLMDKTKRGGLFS
Assay: WRN ATPase ADP-Glo biochemical assay, Assay Format A (10 μM ATP)
Conditions: 0.25 nM WRN, 100 nM C6.18 ssDNA, 30 min preincubation, read-out: ATPase ADPGlo AC50 (uM)- Assay Format A
Outcome measure: AC50

>  <Molecule>
C=CC(=O)N1CCc2nn(-c3ccc(C45CC(C4)C5)c(F)c3)c3c2C(C1)N(C(=O)c1ccc(Br)c2[nH]cnc12)CC3 (centres unmarked)

>  <Outcome measure>
AC50

>  <Observed result>
0.0015 to 0.005 µM

$$$$
>  <Molecule>
C=CC(=O)N1CCOCc2nn(-c3ccc(C(C)C)cc3C)c3c2C(C1)N(C(=O)c1ccc(Br)c(O)c1)CC3 (centres unmarked)

>  <Outcome measure>
AC50

>  <Observed result>
0.015 to 0.055 µM

$$$$
>  <Molecule>
C=CC(=O)N1CC(C)c2nn(-c3ccc(C4CC4)cc3O)c3c2C(C1)N(C(=O)c1cnc(C(F)(F)F)cc1N)CC3 (centres unmarked) [Compound 189]

>  <Outcome measure>
AC50

>  <Observed result>
< 0.0015 µM

$$$$
>  <Molecule>
C=CC(=O)N1CCc2nn(-c3ccc(C(C)C)cc3)c3c2C(C1)N(C(=O)c1ccc(Br)c2ncn(CC4CCO4)c12)CC3 (centres unmarked) [Compound 82]

>  <Outcome measure>
AC50

>  <Observed result>
0.005 to 0.015 µM

$$$$
>  <Molecule>
C=CC(=O)N1CCOc2nn(-c3ccc(C4CC4)cc3C)c3c2C(C1)N(C(=O)c1ccc(Br)c2[nH]cnc12)CC3 (centres unmarked)

>  <Outcome measure>
AC50

>  <Observed result>
< 0.0015 µM

$$$$
>  <Molecule>
C=CC(=O)N1CCc2nn(-c3ccc(C4CC4)cc3)c3c2C(C1)N(C(=O)c1cnc(Br)c(F)c1N)CC3 (centres unmarked)

>  <Outcome measure>
AC50

>  <Observed result>
< 0.0015 µM

$$$$
>  <Molecule>
C=CC(=O)N1CC(F)Oc2nn(-c3ccc(C(C)C)cc3)c3c2C(C1)N(C(=O)c1ccc(Br)c2[nH]cnc12)CC3 (centres unmarked) [Compound 54]

>  <Outcome measure>
AC50

>  <Observed result>
< 0.0015 µM

$$$$
>  <Molecule>
C=CC(=O)N1CCc2nn(-c3ccc(C4CC4)cc3)c3c2C(C1)N(C(=O)c1ccc(C#N)nc1)CC3 (centres unmarked)

>  <Outcome measure>
AC50

>  <Observed result>
0.015 to 0.055 µM

$$$$
>  <Molecule>
C=C(F)C(=O)N1CCc2nn(-c3ccc(C(C)C)cc3)c3c2C(C1)N(C(=O)c1ccc(Br)c2[nH]cnc12)CC3 (centres unmarked)

>  <Outcome measure>
AC50

>  <Observed result>
0.015 to 0.055 µM

$$$$
>  <Molecule>
C=CC(=O)N1CCN(C)c2nn(-c3ccc(C(C)C)cc3)c3c2C(C1)N(C(=O)c1ccc(Br)c2[nH]cnc12)CC3 (centres unmarked)

>  <Outcome measure>
AC50

>  <Observed result>
0.015 to 0.055 µM

$$$$
>  <Molecule>
C=CC(=O)N1CCc2nn(-c3ccc(C4CCC4)cc3O)c3c2C(C1)N(C(=O)c1cnc(C(F)(F)F)c(O)c1)CC3 (centres unmarked)

>  <Outcome measure>
AC50

>  <Observed result>
< 0.0015 µM

$$$$
>  <Molecule>
C=CC(=O)N1CCc2nn(-c3ccc(C4CCC4)cc3C)c3c2C(C1)N(C(=O)c1cnc(C(F)(F)F)cc1N)CC3 (centres unmarked)

>  <Outcome measure>
AC50

>  <Observed result>
< 0.0015 µM

$$$$
>  <Molecule>
C=CC(=O)N1CCc2nn(-c3ccc(C4CC4)cc3)c3c2C(C1)N(C(=O)c1ccc2c(c1)[nH]c(=O)n2C)CC3 (centres unmarked)

>  <Outcome measure>
AC50

>  <Observed result>
> 0.055 µM

$$$$
>  <Molecule>
C=CC(=O)N1CCc2nn(-c3ccc(C4CCC4)cc3O)c3c2C(C1)N(C(=O)c1ccc(OC(F)F)nc1)CC3 (centres unmarked)

>  <Outcome measure>
AC50

>  <Observed result>
< 0.0015 µM

$$$$

====

Target: Full length WRN protein (aa 2-1432) (Homo sapiens (Human), UniProt Q14191)
Assay: WRN ATPase ADP-Glo biochemical assay, Assay Format A (10 μM ATP)
Conditions: 0.25 nM WRN, 100 nM C6.18 ssDNA, 30 min preincubation, read-out: ATPase ADPGlo AC50 (uM)- Assay Format A
Recorded AC50 for the following molecules
Outcome measure: AC50

>  <Molecule>
C=CC(=O)N1CCc2nn(-c3ccc(C4CC4)cc3)c3c2C(C1)N(C(=O)c1ccc(OC(C)C)nc1)CC3 (stereo not shown) [Compound 122]

>  <Outcome measure>
AC50

>  <Observed result>
0.015 to 0.055 µM

$$$$
>  <Molecule>
C=CC(=O)N1CCc2nn(-c3ccc(C4CC4)cc3)c3c2C(C1)N(C(=O)c1ccc(OC(F)F)nc1)CC3 (stereo not shown) [Compound 69]

>  <Outcome measure>
AC50

>  <Observed result>
0.005 to 0.015 µM

$$$$
>  <Molecule>
C=CC(=O)N1CCc2nn(-c3ccc(C4CCC4)cc3O)c3c2C(C1)N(C(=O)c1cnc(C(F)(F)F)cc1O)CC3 (stereo not shown) [Compound 149]

>  <Outcome measure>
AC50

>  <Observed result>
< 0.0015 µM

$$$$
>  <Molecule>
C=CC(=O)N1CCc2nn(-c3ccc(C4CC4)cc3O)c3c2C(C1)N(C(=O)c1cnc(Br)c(F)c1N)CC3 (stereo not shown) [Compound 202]

>  <Outcome measure>
AC50

>  <Observed result>
0.0015 to 0.005 µM

$$$$
>  <Molecule>
C=CC(=O)N1CCOc2nn(-c3ccc(C4CCC4)cc3)c3c2C(C1)N(C(=O)c1ccc(Br)c2[nH]ncc12)CC3 (stereo not shown) [Compound 42]

>  <Outcome measure>
AC50

>  <Observed result>
< 0.0015 µM

$$$$
>  <Molecule>
C=CC(=O)N1CC(F)Oc2nn(-c3ccc(C(C)C)cc3)c3c2C(C1)N(C(=O)c1ccc(Br)c2[nH]cnc12)CC3 (stereo not shown) [Compound 55]

>  <Outcome measure>
AC50

>  <Observed result>
< 0.0015 µM

$$$$
>  <Molecule>
C=CC(=O)N1CCc2nn(-c3ccc(C4CCC4)cc3O)c3c2C(C1)N(C(=O)c1ncc(C(F)(F)F)cc1N)CC3 (stereo not shown) [Compound 142]

>  <Outcome measure>
AC50

>  <Observed result>
< 0.0015 µM

$$$$

====

Recorded AC50 for the following compounds
Biological target: Full length WRN protein (aa 2-1432) (Homo sapiens (Human))
Test: WRN ATPase ADP-Glo biochemical assay, Assay Format B (100 μM ATP)
Conditions: 0.25 nM WRN, 100 nM C6.18 ssDNA, 60 min preincubation, read-out: ATPase ADPGlo AC50 (uM)- Assay Format B
Outcome measure: AC50

>  <Compound>
C=CC(=O)N1CCc2nn(-c3ccc(C(C)C)cc3)c3c2C(C1)N(C(=O)c1cnc(C(F)(F)F)c(OC2CNC2)c1)CC3 (stereo not shown)

>  <Assayed system>
Full length WRN protein (aa 2-1432) (Homo sapiens (Human))

>  <Observed result>
> 0.055 µM

$$$$
>  <Compound>
C=CC(=O)N1CCc2nn(-c3ccc(C4CC4)c(F)c3O)c3c2C(C1)N(C(=O)c1cnc(Br)cc1N)CC3 (stereo not shown)

>  <Assayed system>
Full length WRN protein (aa 2-1432) (Homo sapiens (Human))

>  <Observed result>
0.0015 to 0.005 µM

$$$$
>  <Compound>
C=CC(=O)N1CC(C)c2nn(-c3ccc(C4CCC4)cc3O)c3c2C(C1)N(C(=O)c1cnc(C(F)(F)F)cc1N)CC3 (stereo not shown) [Compound 130]

>  <Assayed system>
Full length WRN protein (aa 2-1432) (Homo sapiens (Human))

>  <Observed result>
0.005 to 0.015 µM

$$$$
>  <Compound>
C=CC(=O)N1CCc2nn(-c3ccc(C45CC(C4)C5)cc3)c3c2C(C1)N(C(=O)c1ccc(C(F)(F)F)nc1N)CC3 (stereo not shown)

>  <Assayed system>
Full length WRN protein (aa 2-1432) (Homo sapiens (Human))

>  <Observed result>
0.015 to 0.055 µM

$$$$
>  <Compound>
C=CC(=O)N1CCc2nn(-c3ccc(C4CCC4)cc3O)c3c2C(C1)N(C(=O)c1cnc(C(F)(F)F)cc1O)CC3 (stereo not shown)

>  <Assayed system>
Full length WRN protein (aa 2-1432) (Homo sapiens (Human))

>  <Observed result>
0.005 to 0.015 µM

$$$$
>  <Compound>
C=CC(=O)N1CCOc2nn(-c3ccc(C4CCC4)cc3)c3c2C(C1)N(C(=O)c1ccc(Br)c2[nH]ncc12)CC3 (stereo not shown)

>  <Assayed system>
Full length WRN protein (aa 2-1432) (Homo sapiens (Human))

>  <Observed result>
0.005 to 0.015 µM

$$$$
>  <Compound>
C=CC(=O)N1CCc2nn(Cc3ccccc3)c3c2C(C1)N(C(=O)c1cnc(C(F)(F)F)cc1N)CC3 (stereo not shown)

>  <Assayed system>
Full length WRN protein (aa 2-1432) (Homo sapiens (Human))

>  <Observed result>
< 0.0015 µM

$$$$
